- Test system: ACHN
- assay-overview: NCI tumour cell line growth inhibition, 48 h
Active and inactive are the calls of the source. Rule as the data show it: active = GI50 up to about 1.1 µM and inactive = higher.
assay-readout: GI50

>>> value_observed("CCOC(=O)C1=c2[nH]c3cccc4cccc(c43)n2C(=O)CC1c1ccccc1 (configuration not stated)")
"> 100 µM (inactive)"
>>> value_observed("C=CCCCN1C(=O)C2C3c4ccccc4C(C=O)(c4ccccc43)C2C1=O (configuration not stated)")
"13.6 µM (inactive)"
>>> value_observed("COc1ccc(C)cc1Nc1nnc(-c2ccc(N)cc2)s1")
"> 100 µM (inactive)"
>>> value_observed("OCCN(CCO)c1cccc(N(CCO)CCO)c1")
"> 100 µM (inactive)"
>>> value_observed("Nc1ccccc1SC(C[N+](=O)[O-])c1ccc2c(c1)OCO2 (configuration not stated)")
"6.46 µM (inactive)"
>>> value_observed("CCC[C@H]1O[C@@H]2CC(=O)O[C@@H]2C2=C1C(=O)C=CC2=O")
"13.1 µM (inactive)"

Each molecule below has a reported value. Please supply its GI50.
1. O=C1O/C(=C(\Br)c2ccc([N+](=O)[O-])cc2)c2ccccc21
2. O=C(Cn1c2ccc(Br)cc2c2nc3ccccc3nc21)NCc1ccccc1
3. CC1C2CC(CC23OCC(CCl)O3)C1(C)C (configuration not stated)
4. CC(=O)O[C@@H]1[C@@H](C)[C@]2(CC(c3ccoc3)OC2O)C2CCC3O[C@]3(C)[C@]2(C)[C@@H]1OC(C)=O (some centres not stated)
5. O=C(CC(=O)Nc1ccccc1)NNC(Sc1ccccc1)c1cc(/N=N/c2ccc(Br)cc2)ccc1O (configuration not stated)
6. O=C(N/N=C\c1ccc([N+](=O)[O-])cc1)c1ccccc1Nc1ccccc1C(=O)N/N=C/c1ccc([N+](=O)[O-])cc1
7. O=c1c2ccccc2nc(-c2ccccc2)n1NC(=S)Nc1ccc(Cl)cc1[N+](=O)[O-]
8. O=c1c(-c2ccccc2)c(SCCN2CCCCCC2)n(-c2ccccc2)c(=S)n1-c1ccccc1

Reply:
1. > 100 µM (inactive)
2. 13.4 µM (inactive)
3. > 100 µM (inactive)
4. 38 µM (inactive)
5. 2.47 µM (inactive)
6. > 100 µM (inactive)
7. > 100 µM (inactive)
8. 54.6 µM (inactive)

----------
Provide the reported GI50 of each item.
- Tested on: HCT-15

For orientation, consider the following solved cases.
>>> value_observed("COC(=O)NC(=O)c1cn(C2OC(CO)C(O)C2O)c(=O)[nH]c1=O (centres undefined)")
"> 100 µM"
>>> value_observed("COc1cc(OC)c2nccc(NCCCN(C)C)c2c1[N+](=O)[O-]")
"> 100 µM"
>>> value_observed("Cc1ccc(S(=O)(=O)NC(=O)NC(CO)C(=O)O)cc1 (centres undefined)")
"> 100 µM"
>>> value_observed("O=C1CC(=O)NC(NN2C(=O)CSC2c2ccc(Cl)cc2)=N1 (centres undefined)")
"> 100 µM"
>>> value_observed("CCOC(=O)c1c2cccccc2n2c(=O)cc(C)nc12")
"> 100 µM"
>>> value_observed("CC1(CCCO)CCCCCC(C)(CCCO)C1=O (centres undefined)")
"> 100 µM"
>>> value_observed("COc1cccc(Nc2nc(N)nc(N)c2N)c1")
"36.9 µM"
>>> value_observed("COCC[N+](CCNC(=O)c1cccc2c(N)c3cccc(C)c3nc12)(CCOC)Cc1ccc([N+](=O)[O-])cc1")
"41.8 µM"

Each molecule below has a reported value. Please supply its GI50.
1. CN(/N=C(\C(=O)O)c1ccccc1)C1=NCCN1
2. CCOC(=O)C(OP(=O)(OCC)OCC)C(F)(F)F (centres undefined)
3. O=[N+]([O-])c1cc(Cl)ccc1S(=O)(=O)N1CCCc2cc(Cl)ccc21
4. CNC(=O)C(C)C1C(=O)/C(=C(O)/C=C\C(C)=C\C(C)C2OC3(C)OC(C=CC34CO4)C2C)C(=O)N1C1CCC(O)C(C)O1 (centres undefined)

Reply:
1. > 100 µM
2. > 100 µM
3. 33.7 µM
4. > 100 µM

Each molecule below has a reported value. Please supply its GI50.
1. Cc1nc2c(o1)C(=O)c1ccccc1/C2=N/c1ccccn1
2. Nc1ccc2c(c1)N(C(=O)CCCC(=O)N1CC(CCl)c3ccc(N)cc31)CC2CCl (centres undefined)

Reply:
1. 14 µM
2. 1.24 µM
